target: T1, monkey GPC3-His protein (monkey); assay: ELISA, monkey GPC3-His coated;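 note: Plate-coated antigen at 1 µg/mL, antibody binding 2 h at 37 °C, detected with HRP-labeled secondary antibody and TMB, absorbance at 450 nm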
T1 construct: Bought recombinant protein; also called monkey GPC3 protein
Catalogue of OD450 at 0.01 nM values
// note: answer is a bare numeric in OD450

Check out these entries, answers already filled in.
F1.111.11 (antibody, human IgG1, kappa, V domains shown, Human-murine chimeric antibody) VH: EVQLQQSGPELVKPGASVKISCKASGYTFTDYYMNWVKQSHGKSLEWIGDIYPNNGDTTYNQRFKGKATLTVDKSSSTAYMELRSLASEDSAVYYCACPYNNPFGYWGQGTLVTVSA VL: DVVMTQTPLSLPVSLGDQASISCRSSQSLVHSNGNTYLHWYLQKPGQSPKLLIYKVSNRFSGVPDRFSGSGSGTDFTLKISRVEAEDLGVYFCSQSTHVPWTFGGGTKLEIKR :: 0.53
F2.39.2 (antibody, human IgG1, kappa, V domains shown, Human-murine chimeric antibody) VH: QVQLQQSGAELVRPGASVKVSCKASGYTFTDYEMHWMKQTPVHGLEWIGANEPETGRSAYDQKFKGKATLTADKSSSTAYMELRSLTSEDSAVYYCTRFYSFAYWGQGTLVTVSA VL: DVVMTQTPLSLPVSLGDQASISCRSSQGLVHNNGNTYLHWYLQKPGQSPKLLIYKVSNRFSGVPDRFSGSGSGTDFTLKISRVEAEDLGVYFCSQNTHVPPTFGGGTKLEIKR :: 0.66

As a next step, examine the binder that follows.
## Task # return recorded OD450 at 0.01 nM for input F2.152.3 (antibody, human IgG1, kappa, V domains shown, Human-murine chimeric antibody) VH: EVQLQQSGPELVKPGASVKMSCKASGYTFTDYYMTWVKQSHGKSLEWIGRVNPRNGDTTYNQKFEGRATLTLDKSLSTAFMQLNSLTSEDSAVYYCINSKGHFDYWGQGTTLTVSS VL: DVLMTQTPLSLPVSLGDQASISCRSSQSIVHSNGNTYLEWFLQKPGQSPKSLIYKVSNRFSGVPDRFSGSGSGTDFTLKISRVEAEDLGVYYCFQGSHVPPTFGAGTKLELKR
## Result 0.69
